- TARGET: SOS1-KRAS (Homo sapiens, UniProt P01116, G12D)
- Sequence (P01116 whole entry G12D, looked up): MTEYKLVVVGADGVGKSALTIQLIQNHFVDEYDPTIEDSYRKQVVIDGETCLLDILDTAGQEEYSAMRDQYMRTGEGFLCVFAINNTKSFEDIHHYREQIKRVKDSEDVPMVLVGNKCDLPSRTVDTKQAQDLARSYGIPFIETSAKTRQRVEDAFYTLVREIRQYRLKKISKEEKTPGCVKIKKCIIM
- ASSAY PROCEDURE: Inhibition of KRAS G12D mutant/SOS1 (unknown origin) interaction by TR-FRET assay
Where a SMILES comes first, the peptide text is derived from it. [ ]: non-standard residue; d: D form. hPhe(3-Cl-4-CF3) = N[C@@H](CCc1ccc(C(F)(F)F)c(Cl)c1)C(=O)O; NMeCha = CN[C@@H](CC1CCCCC1)C(=O)O; NMeL = CN[C@@H](CC(C)C)C(=O)O; NMeV = CN[C@H](C(=O)O)C(C)C; NMeA = CN[C@@H](C)C(=O)O; Ac5c = NC1(C(=O)O)CCCC1; Aze = O=C(O)[C@@H]1CCN1; β3hA = C[C@H](N)CC(=O)O; Sar = CNCC(=O)O
Property: pIC50; scope: individual molecules
In textbook form, pIC50 equals minus log to base ten of the concentration in mol/L.

CC[C@H](C)[C@@H]1NC(=O)[C@H](CC(C)C)N(C)C(=O)C[C@H](C)NC(=O)[C@H](C(C)C)N(C)C(=O)C2(CCCC2)NC(=O)[C@@H]2CCCN2C(=O)[C@H](CCc2ccc(C(F)(F)F)c(Cl)c2)NC(=O)CN(C)C(=O)[C@H](CC2CCCCC2)N(C)C(=O)[C@@H]2CCN2C(=O)[C@H](C)N(C)C1=O (cyclo([Ac5c][NMeV][β3hA][NMeL]I[NMeA][Aze][NMeCha][Sar][hPhe(3-Cl-4-CF3)]P))    7.62

Please look at the following molecule next.
IN: # pIC50 lookup, item `CC[C@H](C)[C@H](NC(=O)CNC(=O)[C@H](Cc1ccccc1)NC(=O)[C@H](Cc1ccccc1)NC(=O)[C@H](CCCNC(=N)N)NC(=O)[C@H](CCCNC(=N)N)NC(C)=O)C(=O)N[C@@]1(C)CCC/C=C\CCC[C@@](C)(C(=O)N[C@@H](CC(C)C)C(=O)N[C@@H](CCCCN)C(=O)N[C@H](C(=O)N[C@@H](CCC(=O)O)C(=O)N[C@@H](CCC(=O)O)C(=O)NCC(=O)N[C@@H](CC(N)=O)C(N)=O)[C@@H](C)O)NC(=O)[C@@H](CC(N)=O)NC(=O)[C@H]([C@@H](C)O)NC(=O)[C@@H](CC(C)C)NC1=O`
OUT: 7.44
